What viability, T/C was measured for each of the following?
tested on: NCI-H719 tumor spheroids, viability; assay: Anticancer human tumor NCI-H719 cell line growth inhibition; conditions: second compound 0.0003 µM; first compound 0.1 µM; stronger effect = lower value; spheroids with HUVEC and MSC;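 further: spheroids exposed to compounds for seven days; percent viability relative to DMSO vehicle control as 100%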

Q: Entry under review: COc1ccc([C@@H](O)c2cc(-c3ncnc4cc(N5CCOCC5)ccc34)c(F)cc2Cl)nn1 + COc1cc2c(cc1O)CCNC21CSC2c3c(OC(C)=O)c(C)c4c(c3C(COC1=O)N1C(O)C3Cc5cc(C)c(OC)c(O)c5C(C21)N3C)OCO4 . Reported viability, T/C?
Result: 8.22%

Q: Here is the next molecule: [2H]c1nc(C)nc([2H])c1-c1cc(NC[C@@H](C)c2cccc3c(C(=O)NC)ccnc23)ncn1 + COc1cc2c(cc1O)CCNC21CSC2c3c(OC(C)=O)c(C)c4c(c3C(COC1=O)N1C(O)C3Cc5cc(C)c(OC)c(O)c5C(C21)N3C)OCO4
Result: 6.02%

Q: Here is the next molecule: COc1cc(C)[nH]c(=O)c1CN1CCc2c(Cl)cc(C(OC)C3COC3)c(Cl)c2C1=O (stereo unspecified) + COc1cc2c(cc1O)CCNC21CSC2c3c(OC(C)=O)c(C)c4c(c3C(COC1=O)N1C(O)C3Cc5cc(C)c(OC)c(O)c5C(C21)N3C)OCO4
Result: 6.14%

Q: Here is the next molecule: CC1COCCN1c1cc(-c2ccnn2C)c2ccnc(-c3ccn[nH]3)c2n1 (stereo unspecified) + COc1cc2c(cc1O)CCNC21CSC2c3c(OC(C)=O)c(C)c4c(c3C(COC1=O)N1C(O)C3Cc5cc(C)c(OC)c(O)c5C(C21)N3C)OCO4
Result: 7.97%

Q: Here is the next molecule: Cc1cc(C)c(CNC(=O)c2cc(-c3ccc(CN4CCOCC4)cc3)cc3c2cnn3C2CCCC2)c(=O)[nH]1 + COc1cc2c(cc1O)CCNC21CSC2c3c(OC(C)=O)c(C)c4c(c3C(COC1=O)N1C(O)C3Cc5cc(C)c(OC)c(O)c5C(C21)N3C)OCO4
Result: 8.67%

Q: Here is the next molecule: CC(C)n1c(=O)n(C)c2cnc3cc(F)c(-c4ccc(OCCCN5CCCCC5)nc4)cc3c21 + COc1cc2c(cc1O)CCNC21CSC2c3c(OC(C)=O)c(C)c4c(c3C(COC1=O)N1C(O)C3Cc5cc(C)c(OC)c(O)c5C(C21)N3C)OCO4
Result: 5.76%

###

What viability, T/C was measured for each of the following?
tested on: NCI-H719 tumor spheroids, viability; assay: Anticancer human tumor NCI-H719 cell line growth inhibition; conditions: second compound 0.03 µM; first compound 10 µM; stronger effect = lower value; spheroids with HUVEC and MSC;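 further: spheroids exposed to compounds for seven days; percent viability relative to DMSO vehicle control as 100%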
Kindly provide the numeric value in % only, without the unit symbol.

Q: Entry under review: COc1cc(C)[nH]c(=O)c1CN1CCc2c(Cl)cc(C(OC)C3COC3)c(Cl)c2C1=O (stereo unspecified) + CC[C@@]1(O)C(=O)OCc2c1cc1n(c2=O)Cc2cc3c(CN(C)C)c(O)ccc3nc2-1 . Reported viability, T/C?
Result: 7.28

Q: Here is the next compound: COc1ccc([C@@H](O)c2cc(-c3ncnc4cc(N5CCOCC5)ccc34)c(F)cc2Cl)nn1 + CC[C@@]1(O)C(=O)OCc2c1cc1n(c2=O)Cc2cc3c(CN(C)C)c(O)ccc3nc2-1
Result: 3.08

Q: Here is the next compound: [2H]c1nc(C)nc([2H])c1-c1cc(NC[C@@H](C)c2cccc3c(C(=O)NC)ccnc23)ncn1 + CC[C@@]1(O)C(=O)OCc2c1cc1n(c2=O)Cc2cc3c(CN(C)C)c(O)ccc3nc2-1
Result: 8.73

Q: Here is the next compound: CC1COCCN1c1cc(-c2ccnn2C)c2ccnc(-c3ccn[nH]3)c2n1 (stereo unspecified) + CC[C@@]1(O)C(=O)OCc2c1cc1n(c2=O)Cc2cc3c(CN(C)C)c(O)ccc3nc2-1
Result: 7.48

Q: Here is the next compound: CC(C)n1c(=O)n(C)c2cnc3cc(F)c(-c4ccc(OCCCN5CCCCC5)nc4)cc3c21 + CC[C@@]1(O)C(=O)OCc2c1cc1n(c2=O)Cc2cc3c(CN(C)C)c(O)ccc3nc2-1
Result: 6.27

Q: Here is the next compound: Cc1cc(C)c(CNC(=O)c2cc(-c3ccc(CN4CCOCC4)cc3)cc3c2cnn3C2CCCC2)c(=O)[nH]1 + CC[C@@]1(O)C(=O)OCc2c1cc1n(c2=O)Cc2cc3c(CN(C)C)c(O)ccc3nc2-1
Result: 16.3
